tested on: Barnyardgrass (Echinochloa crus-galli); assay: Postemergence herbicidal activity, greenhouse spray; type: in vivo; details: Echinochloa crus-galli, post-emergence, 336 h, Table 1; rate 250 ppm; visual score after 2 weeks; read-out: Post-emergent % control ECHCG
Kindly supply the reported pest or weed control at 250 ppm values for the records listed here.
Provide the reading as a plain figure in %.

Exercise: What does the data say about its pest or weed control at 250 ppm? Entry: Cc1ccc(-c2cc(N)c(Cl)c(C(=O)O)n2)cc1 [Compound 136]
Key: 70

Exercise: What does the data say about its pest or weed control at 250 ppm? Entry: COc1ccc(-c2cc(N)c(Cl)c(C(=O)O)n2)cc1 [Compound 141]
Key: 80

Exercise: What does the data say about its pest or weed control at 250 ppm? Entry: Nc1c(F)c(-c2ccc(Cl)cc2Cl)nc(C(=O)O)c1Cl [Compound 199]
Key: 85

Exercise: What does the data say about its pest or weed control at 250 ppm? Entry: COC(=O)c1nc(-c2ccc(C)cc2)cc(N)c1Cl [Compound 20]
Key: 70

Exercise: What does the data say about its pest or weed control at 250 ppm? Entry: COC(=O)c1nc(-c2ccc(OC)cc2)cc(N)c1Cl [Compound 17]
Key: 70

Exercise: What does the data say about its pest or weed control at 250 ppm? Entry: COC(=O)c1nc(-c2cccc(C)c2)cc(N)c1Cl [Compound 21]
Key: 0

Exercise: What does the data say about its pest or weed control at 250 ppm? Entry: COC(=O)c1nc(-c2ccc(Cl)cc2Cl)c(F)c(N)c1Cl [Compound 88]
Key: 85

Exercise: What does the data say about its pest or weed control at 250 ppm? Entry: Cc1ccc(-c2nc(C(=O)O)c(Cl)c(N)c2F)cc1 [Compound 163]
Key: 70

Exercise: What does the data say about its pest or weed control at 250 ppm? Entry: Cc1cccc(-c2cc(N)c(Cl)c(C(=O)O)n2)c1 [Compound 138]
Key: 50

Exercise: What does the data say about its pest or weed control at 250 ppm? Entry: COC(=O)c1nc(-c2ccc(Cl)cc2Cl)cc(N)c1Cl [Compound 13]
Key: 70

Exercise: What does the data say about its pest or weed control at 250 ppm? Entry: COC(=O)c1nc(-c2ccc(C(F)(F)F)cc2)cc(N)c1Cl [Compound 28]
Key: 75

Exercise: What does the data say about its pest or weed control at 250 ppm? Entry: COC(=O)c1nc(-c2ccc(C(F)(F)F)cc2)c(Cl)c(N)c1Cl [Compound 44]
Key: 30

Exercise: What does the data say about its pest or weed control at 250 ppm? Entry: COC(=O)c1nc(-c2cccc(Cl)c2)cc(N)c1Cl [Compound 27]
Key: 70

Exercise: What does the data say about its pest or weed control at 250 ppm? Entry: COc1ccccc1-c1cc(N)c(Cl)c(C(=O)O)n1 [Compound 139]
Key: 70

Exercise: What does the data say about its pest or weed control at 250 ppm? Entry: COC(=O)c1nc(-c2ccc(Cl)cn2)cc(N)c1Cl [Compound 111]
Key: 70

Exercise: What does the data say about its pest or weed control at 250 ppm? Entry: COC(=O)c1nc(-c2ccc3c(c2)CCO3)c(F)c(N)c1Cl [Compound 85]
Key: 99

Exercise: What does the data say about its pest or weed control at 250 ppm? Entry: Nc1c(F)c(-c2ccc3c(c2)OCO3)nc(C(=O)O)c1Cl [Compound 196]
Key: 100

###

metric name: melting point

Exercise: What does the data say about its melting point? Entry: Nc1cc(-c2ccc(Cl)cc2C(F)(F)F)nc(C(=O)O)c1Cl [Compound 182]
Key: 178 to 180 °C

Exercise: What does the data say about its melting point? Entry: COC(=O)c1nc(-c2ccc(Cl)cc2Cl)c(F)c(N)c1Cl [Compound 88]
Key: 122 °C

Exercise: What does the data say about its melting point? Entry: COC(=O)c1nc(-c2ccc3c(c2)OCO3)cc(N)c1Cl [Compound 29]
Key: 184 °C

Exercise: What does the data say about its melting point? Entry: Cc1ccc(-c2cc(N)c(Cl)c(C(=O)O)n2)c(F)c1 [Compound 158]
Key: 187 to 189 °C

Exercise: What does the data say about its melting point? Entry: COC(=O)c1nc(-c2ccc(F)cc2Cl)cc(NC(C)=O)c1Cl [Compound 54]
Key: 162 to 163 °C

Exercise: What does the data say about its melting point? Entry: Nc1cc(-c2ccc(Cl)cc2F)nc(C(=O)O)c1Cl [Compound 168]
Key: 162 to 163 °C

Exercise: What does the data say about its melting point? Entry: Nc1cc(-c2nc3ccccc3o2)nc(C(=O)O)c1Cl [Compound 226]
Key: 262 °C (dec.)

Exercise: What does the data say about its melting point? Entry: COC(=O)c1nc(-c2cc(Br)ccc2OC)cc(N)c1Cl [Compound 32]
Key: 191 to 192 °C

Exercise: What does the data say about its melting point? Entry: COCc1cc(-c2cc(NC(C)=O)c(Cl)c(C(=O)OC)n2)ccc1Cl [Compound 70]
Key: 120 to 122 °C

###

Kindly supply the reported melting point values for the records listed here.

Exercise: What does the data say about its melting point? Entry: Nc1cc(-c2ccncc2)nc(C(=O)O)c1Cl [Compound 209]
Key: 155 °C (dec.)

Exercise: What does the data say about its melting point? Entry: COC(=O)c1nc(-c2ccnc(OC)c2)cc(N)c1Cl [Compound 107]
Key: 185 to 187 °C

Exercise: What does the data say about its melting point? Entry: COC(=O)c1nc(-c2nnn(C)n2)cc(N)c1Cl [Compound 11]
Key: 250 to 252 °C

Exercise: What does the data say about its melting point? Entry: COC(=O)c1nc(-c2ccc(CO)cc2)cc(N)c1Cl [Compound 242]
Key: 138 to 139 °C

Exercise: What does the data say about its melting point? Entry: COc1ccc(OC)c(-c2cc(N)c(Cl)c(C(=O)O)n2)c1 [Compound 194]
Key: 185 to 186 °C

Exercise: What does the data say about its melting point? Entry: Nc1c(F)c(-c2ccc3c(c2)OCO3)nc(C(=O)O)c1Cl [Compound 196]
Key: 169 °C

Exercise: What does the data say about its melting point? Entry: COC(=O)c1nc(-c2c(C)noc2C)cc(N)c1Cl [Compound 100]
Key: 143 °C

Exercise: What does the data say about its melting point? Entry: Nc1cc(-c2ccc(Cl)s2)nc(C(=O)O)c1Cl [Compound 215]
Key: 178 to 179 °C

Exercise: What does the data say about its melting point? Entry: Cc1cc(-c2cc(N)c(Cl)c(C(=O)O)n2)ccc1Cl [Compound 149]
Key: 190 to 191 °C

Exercise: What does the data say about its melting point? Entry: Nc1cc(-c2cnco2)nc(C(=O)O)c1Cl [Compound 231]
Key: 166 to 170 °C

###

Kindly supply the reported melting point values for the records listed here.

Exercise: What does the data say about its melting point? Entry: COC(=O)c1nc(-c2cnco2)cc(N)c1Cl
Key: 166 to 170 °C

Exercise: What does the data say about its melting point? Entry: Nc1cc(-c2ccc(CO)cc2)nc(C(=O)O)c1Cl
Key: 181 to 182 °C

Exercise: What does the data say about its melting point? Entry: COC(=O)c1nc(-c2nnnn2C)cc(N)c1Cl
Key: 239 to 241 °C

Exercise: What does the data say about its melting point? Entry: COC(=O)c1nc(-c2c(F)cccc2F)cc(NC(C)=O)c1Cl
Key: 156 to 157 °C

Exercise: What does the data say about its melting point? Entry: COC(=O)c1nc(-c2ccccc2F)cc(N)c1Cl
Key: 121 to 122 °C

Exercise: What does the data say about its melting point? Entry: COC(=O)c1nc(-c2ccc3c(c2)CCO3)cc(N)c1Cl
Key: 143 °C

Exercise: What does the data say about its melting point? Entry: COC(=O)c1nc(-c2cc3ccccc3s2)cc(NC(C)=O)c1Cl
Key: 184 to 185 °C

Exercise: What does the data say about its melting point? Entry: Cc1ccc(-c2nc(C(=O)O)c(F)c(N)c2F)cc1
Key: 144 to 145 °C

Exercise: What does the data say about its melting point? Entry: COC(=O)c1nc(-c2ccc3c(c2Cl)OCO3)cc(N)c1Cl
Key: 155 to 156 °C

Exercise: What does the data say about its melting point? Entry: Nc1c(F)c(-c2ccc(Cl)cc2F)nc(C(=O)O)c1Cl
Key: 154 to 155 °C

Exercise: What does the data say about its melting point? Entry: COC(=O)c1nc(-c2cccs2)cc(N)c1Cl
Key: 138 to 139 °C

Exercise: What does the data say about its melting point? Entry: Nc1cc(-c2cc3ccccc3o2)nc(C(=O)O)c1Cl
Key: 151 °C

Exercise: What does the data say about its melting point? Entry: COCc1cc(-c2cc(N)c(Cl)c(C(=O)O)n2)ccc1Cl
Key: 162 °C

Exercise: What does the data say about its melting point? Entry: COC(=O)c1nc(-c2ccc(Cl)c(Cl)c2)cc(N)c1Cl
Key: 170 °C

Exercise: What does the data say about its melting point? Entry: COC(=O)c1nc(-c2ccc(Cl)cn2)cc(N)c1Cl
Key: 145 to 150 °C

Exercise: What does the data say about its melting point? Entry: Cc1ccc(-c2nc(C(=O)O)c(Cl)c(N)c2F)cc1
Key: 145 to 148 °C (dec.)

Exercise: What does the data say about its melting point? Entry: COC(=O)c1nc(-c2ccc(Cl)cc2OC)cc(NC(C)=O)c1Cl
Key: 176 to 178 °C

Exercise: What does the data say about its melting point? Entry: Nc1cc(-c2cc3ccccc3s2)nc(C(=O)O)c1Cl
Key: 176 °C

Exercise: What does the data say about its melting point? Entry: COC(=O)c1nc(-c2ccc(F)c(Cl)c2)cc(N)c1Cl
Key: 169 to 170 °C

Exercise: What does the data say about its melting point? Entry: CCCCOC(=O)c1nc(-c2ccc(C)cc2)cc(N)c1Cl
Key: 60 to 62 °C

Exercise: What does the data say about its melting point? Entry: COc1ccc(-c2cc(N)c(Cl)c(C(=O)O)n2)cn1
Key: 110 °C (dec.)

Measured values drawn from patent US6784137B2 for this set.
